Record form. Attribute: Kd. Fill in for each entry.
testedSystem: T1, human IFN-ω (human, UniProt P05000 24-195)
T1 construct: Recombinant, HEK293; also called interferon omega
protocolNotes: ProteOn SPR, cell supernatant;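 also: each binding measurement used just a single antigen concentration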
Return type: number; implicit unit nM.

For record IFWM3389 (antibody, IgG1, V domains shown, mAb; IgG1/kappa said of the parent and of selected mAbs; also called IFWB3124) VH: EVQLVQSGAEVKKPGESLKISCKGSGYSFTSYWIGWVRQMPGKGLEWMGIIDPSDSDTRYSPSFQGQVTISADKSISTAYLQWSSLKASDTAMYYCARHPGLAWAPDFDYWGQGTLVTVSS VL: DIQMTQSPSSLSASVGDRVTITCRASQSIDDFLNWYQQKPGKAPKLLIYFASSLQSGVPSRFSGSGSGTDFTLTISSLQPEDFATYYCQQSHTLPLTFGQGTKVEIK the listed Kd is 0.017

For record IFWM3400 (antibody, IgG1, V domains shown, mAb; IgG1/kappa said of the parent and of selected mAbs; also called IFWB3135) VH: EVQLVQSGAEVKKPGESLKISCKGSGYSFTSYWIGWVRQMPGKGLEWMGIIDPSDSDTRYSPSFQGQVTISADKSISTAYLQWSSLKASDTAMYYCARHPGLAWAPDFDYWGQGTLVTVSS VL: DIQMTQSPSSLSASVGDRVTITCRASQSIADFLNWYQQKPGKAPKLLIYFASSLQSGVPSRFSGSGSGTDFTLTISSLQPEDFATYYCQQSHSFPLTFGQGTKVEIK the listed Kd is 0.033

For record IFWM3401 (antibody, IgG1, V domains shown, mAb; IgG1/kappa said of the parent and of selected mAbs; also called IFWB3136) VH: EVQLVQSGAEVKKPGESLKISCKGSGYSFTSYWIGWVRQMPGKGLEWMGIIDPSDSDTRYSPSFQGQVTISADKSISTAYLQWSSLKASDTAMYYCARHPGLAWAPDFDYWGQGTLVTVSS VL: DIQMTQSPSSLSASVGDRVTITCRASQSITNHLNWYQQKPGKAPKLLIYFASSLQSGVPSRFSGSGSGTDFTLTISSLQPEDFATYYCQQAHNFPLTFGQGTKVEIK the listed Kd is 0.062

For record IFWM3379 (antibody, IgG1, V domains shown, mAb; IgG1/kappa said of the parent and of selected mAbs; also called IFWB3114) VH: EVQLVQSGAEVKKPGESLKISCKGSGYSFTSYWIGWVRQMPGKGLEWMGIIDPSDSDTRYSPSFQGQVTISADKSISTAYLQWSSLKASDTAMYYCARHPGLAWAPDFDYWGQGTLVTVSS VL: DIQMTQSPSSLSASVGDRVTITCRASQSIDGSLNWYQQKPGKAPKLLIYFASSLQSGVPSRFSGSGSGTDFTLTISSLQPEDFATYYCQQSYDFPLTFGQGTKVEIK the listed Kd is 0.015

For record IFWM3395 (antibody, IgG1, V domains shown, mAb; IgG1/kappa said of the parent and of selected mAbs; also called IFWB3130) VH: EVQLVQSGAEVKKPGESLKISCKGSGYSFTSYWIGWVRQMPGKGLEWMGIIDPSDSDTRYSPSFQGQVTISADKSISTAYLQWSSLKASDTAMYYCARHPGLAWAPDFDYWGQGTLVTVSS VL: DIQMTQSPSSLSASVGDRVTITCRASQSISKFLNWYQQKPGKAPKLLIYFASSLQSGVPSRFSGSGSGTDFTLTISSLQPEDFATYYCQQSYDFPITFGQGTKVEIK the listed Kd is 0.019
